# Target: furin, P09958;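 also: purified furin at 1:10 enzyme:substrate in 50 mM HEPES pH 7.5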
# Sequence (P09958 whole entry): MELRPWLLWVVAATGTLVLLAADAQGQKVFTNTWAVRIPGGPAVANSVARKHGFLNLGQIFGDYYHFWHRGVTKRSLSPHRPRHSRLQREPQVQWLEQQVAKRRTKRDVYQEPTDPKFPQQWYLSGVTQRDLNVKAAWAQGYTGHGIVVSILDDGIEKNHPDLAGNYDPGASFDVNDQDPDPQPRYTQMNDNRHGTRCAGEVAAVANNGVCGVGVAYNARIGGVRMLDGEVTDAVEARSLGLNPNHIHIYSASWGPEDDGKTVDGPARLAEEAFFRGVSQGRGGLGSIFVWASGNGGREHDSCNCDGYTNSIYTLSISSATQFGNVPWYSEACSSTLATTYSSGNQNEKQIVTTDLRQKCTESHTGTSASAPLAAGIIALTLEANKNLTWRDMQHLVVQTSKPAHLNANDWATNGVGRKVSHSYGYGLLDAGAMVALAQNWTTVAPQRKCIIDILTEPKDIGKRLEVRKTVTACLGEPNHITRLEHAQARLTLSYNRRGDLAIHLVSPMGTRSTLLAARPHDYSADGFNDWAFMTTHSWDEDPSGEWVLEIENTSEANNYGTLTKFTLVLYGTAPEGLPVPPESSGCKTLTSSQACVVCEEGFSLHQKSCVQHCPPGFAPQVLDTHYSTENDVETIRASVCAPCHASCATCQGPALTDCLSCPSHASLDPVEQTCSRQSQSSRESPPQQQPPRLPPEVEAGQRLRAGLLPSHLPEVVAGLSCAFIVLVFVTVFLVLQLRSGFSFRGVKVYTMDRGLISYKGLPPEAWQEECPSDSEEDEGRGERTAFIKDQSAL
# Protocol Notes: furin cleavage Z-score vs untreated control; higher = more cleavage, active = 3.5 or more, inactive = 1 or less, 8 variable residues between constant flanks
# Experimental Parameters: 30 min
The other results are listed elsewhere or left out. How many sequences the whole screen found active is unknown.
Reported Endpoint: furin cleavage Z-score
I'd appreciate a reply containing only the number, no unit.

Examples with answers:
biosequence="CAELSRTGRSAGNASASA [FS-22]" reported_endpoint="furin cleavage Z-score" observed_measurement=5.19
biosequence="CAALNRTGRSAGNASASA [FS-748]" reported_endpoint="furin cleavage Z-score" observed_measurement=9.72

sequence CAALNRRKKQAGNASASA [FS-747] , furin cleavage Z-score observed: 3.99
